Study target: Papain (Carica papaya)
Sequence (P00784 whole entry): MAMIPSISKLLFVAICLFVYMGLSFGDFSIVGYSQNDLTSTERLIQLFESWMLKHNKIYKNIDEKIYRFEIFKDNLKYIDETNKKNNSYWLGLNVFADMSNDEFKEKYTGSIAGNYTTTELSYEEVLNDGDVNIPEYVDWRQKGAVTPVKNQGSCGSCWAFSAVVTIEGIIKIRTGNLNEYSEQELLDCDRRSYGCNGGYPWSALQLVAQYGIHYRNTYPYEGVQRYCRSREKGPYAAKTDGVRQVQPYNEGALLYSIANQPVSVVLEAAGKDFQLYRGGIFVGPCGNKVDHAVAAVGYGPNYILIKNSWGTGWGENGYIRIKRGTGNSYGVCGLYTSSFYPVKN
Attribute measured: Ki (µM)

>  <Given smiles>
CC(C)C[C@H](NC(=O)OCc1ccccc1)C(=O)NCC(=O)CNC(=O)[C@H](CC(C)C)NC(=O)OCc1ccccc1

>  <Recorded result>
10

$$$$
